- ASSAY_NOTES: Inhibition of Saccharomyces cerevisiae alpha-glucosidase using p-nitrophenyl-alpha-D-glucoside as substrate measured for 40 mins by spectrophotometric analysis
# key: entry, value: pIC50
Scale: negative log10 of molar concentration, which is what pIC50 denotes.

For orientation, consider the following solved cases.
Query block: Read off the recorded pIC50 for CC(C)=CCc1c(C)cc2cc3c(c(O)c2c1O)C(=O)C(CC1=C(O)C(CC=C(C)C)(CC=C(C)C)c2cc4cc(C)c(CC=C(C)C)c(O)c4c(O)c2C1=O)=C(O)C3(CC=C(C)C)CC=C(C)C
Result block: 5.92

Query block: Output measured pIC50 for this item: CC(C)=CCc1c(C)cc(O)c2c1[C@@H](O)c1c3c(cc(O)c1C2=O)O[C@@H](C(C)(C)O)C3
Result block: 3.68

Query block: Give a short answer stating reported pIC50 for CC(C)=CCc1c(C)cc(O)c2c1[C@@H](O)c1c3c(cc(O)c1C2=O)OC(C)(C)[C@@H](O)C3 .
Result block: 4.43

***
Query block: Name the recorded pIC50 of the item Cc1cc(O)c2c3c1[C@H](O)[C@@H]1O[C@]3(OC1(C)C)c1c3c(cc(O)c1C2=O)O[C@@H](C(C)(C)O)C3 in your answer.
Result block: 3.93

Query block: Give the reported value of pIC50 for this record: CC(C)=CCc1c(C)cc(O)c2c1C(O)c1c(CC=C(C)C)c(O)cc(O)c1C2=O (configuration not stated)
Result block: 4.36

Query block: Given C[C@@H]1O[C@@H](O[C@@H]2[C@@H](O)[C@H](O)[C@H](O[C@H]3[C@H](O)[C@@H](O)C(O)O[C@@H]3CO)O[C@H]2CO)[C@@H](O)[C@H](O)[C@H]1N[C@H]1C=C(CO)[C@@H](O)[C@H](O)[C@H]1O (some centres not stated) , respond with its pIC50.
Result block: 3.92

Query block: # return recorded pIC50 for entry CC(C)=CCc1c(C)cc(O)c2c(O)c3c(cc12)C(CC=C(C)C)(CC=C(C)C)C(O)=CC3=O
Result block: 4.42
